src = ChEMBL document CHEMBL5344428

Tested on: Human immunodeficiency virus 1
Assay: Antiviral activity against HIV1 IIIB infected in human MT4 cells assessed as reduction in virus induced cytopathic effect measured after 5 days by MTT assay
Type: functional, organism-based
Settings: Human immunodeficiency virus 1, IIIB, MT4, 120 h
Measurement Label: pEC50
Lab note: report pEC50 as minus log10 of the concentration in molar units, number only.

Example results:
substance_smiles=COc1ccc(-n2c([C@H](Cc3ccccc3)NC(=O)CN3CCN(S(=O)(=O)c4ccc(N)cc4)CC3)nc3cc(S(C)(=O)=O)ccc3c2=O)cc1 measurement_label=pEC50 numeric_readout=5.42
substance_smiles=COc1ccc(C(=O)Nc2ccn(CC(=O)N[C@@H](Cc3ccccc3)C(=O)N(C)c3ccc(OC)cc3)c(=O)c2)cc1 measurement_label=pEC50 numeric_readout=4.53
substance_smiles=O=C(CN1CCN(S(=O)(=O)c2ccc([N+](=O)[O-])cc2)CC1)N[C@@H](Cc1ccccc1)c1nc2ccccc2c(=O)n1-c1ccc(S(=O)(=O)N2CCS(=O)(=O)CC2)cc1 measurement_label=pEC50 numeric_readout=4.90
substance_smiles=COc1ccc(N(C)C(=O)[C@H](Cc2cc(F)cc(F)c2)NC(=O)CN2CCN(C(=O)Cc3c[nH]c4ccc(F)cc34)CC2=O)cc1 measurement_label=pEC50 numeric_readout=5.23

Let us move to another entry and its pEC50.
Sample `COc1ccc(N(C)C(=O)[C@H](Cc2cc(F)cc(F)c2)NC(=O)CN(C(=O)Cc2ccc(B3OC(C)(C)C(C)(C)O3)cc2)C2CC2)cc1` — what was its pEC50?
5.29
